experiment: method code SF-AS, from Dearden, C.; O'Hara, H. (1978). Partition coefficients of some alkyl derivatives of 4-acetamidophenol. Eur J Med Chem, 13(5)415-419.
logP listing for selected molecules.
Give only the figure.

Solved cases (5 shown):
[[record]]
smiles_input = "CC(=O)Nc1cc(C)c(O)cc1C"
measured_value = 0.6

[[record]]
smiles_input = "CC(=O)Nc1ccc(O)c(C)c1C"
measured_value = 0.57

[[record]]
smiles_input = "CC(=O)Nc1ccc(O)c(C)c1"
measured_value = 0.79

[[record]]
smiles_input = "CC(=O)Nc1ccc(O)c(C(C)(C)C)c1"
measured_value = 2.36

[[record]]
smiles_input = "CC(=O)Nc1ccc(O)cc1C"
measured_value = 0.17


logP for CC(=O)Nc1c(C)cc(O)c(C)c1C is 0.75

Measured logP of CC(=O)Nc1cc(C)c(O)c(C)c1C : 0.82

So, CC(=O)Nc1c(C)c(C)c(O)c(C)c1C ? Its logP was 0.95

For reference, reported logP for CCc1cc(NC(C)=O)cc(CC)c1O stands at 1.87

molecule CC(=O)Nc1c(C)cc(O)cc1C , logP observed: 0.31

According to the records, this molecule CC(=O)Nc1cc(C)c(O)c(C)c1 displays logP of 1.11

Looking up CC(=O)Nc1cc(C(C)(C)C)c(O)c(C(C)(C)C)c1 , I found its logP recorded as 3.18

// logP value for CC(=O)Nc1ccc(O)c(C(C)C)c1 : 1.71

For record CCc1cc(NC(C)=O)ccc1O the listed logP is 1.31

Sourced from the SangsterLogP compilation
